# Reduction annotations
# System: Rattus norvegicus
# test_details: Percent reduction in blood pressure in spontaneously hypertensive rats (SHR) at peroral dose of 5 mg/kg was determined after 6 hr
# Assay type: functional
# study_conditions: route oral, 5 mg/kg

molecule | tested_system | Reduction (%)
COc1cc2nc(N3CCN(C(=O)C4Oc5ccccc5OC4C)CC3)nc(N)c2cc1OC (trans isomer) | Rattus norvegicus | 21
COc1cc2nc(N3CCN(C(=O)C4COc5ccccc5O4)CC3)nc(N)c2cc1OC (single isomer, unassigned; (+)) [DOXAZOSIN] | Rattus norvegicus | 24
COc1cc2nc(N3CCN(C(=O)C4Oc5ccccc5OC4C)CC3)nc(N)c2cc1OC (cis isomer) | Rattus norvegicus | 25
COc1cc2nc(N3CCN(C(=O)C4COc5ccccc5O4)CC3)nc(N)c2cc1OC (stereo in doubt; 1) [DOXAZOSIN] | Rattus norvegicus | 27

###

# tested_system: Adrenergic receptor alpha-1 (Rattus norvegicus, UniProt P15823+P23944+P43140)
# test_details: Compound was tested for its binding affinity for alpha-1 adrenergic receptor site by displacement of [3H]prazosin at 0.15 nM concentration
Documented Ki across a set of compounds

compound | tested_system | Ki [nM]
COc1cc2nc(N3CCN(C(=O)C4COc5cccc(C)c5O4)CC3)nc(N)c2cc1OC (stereo unspecified) | Adrenergic receptor alpha-1 (Rattus norvegicus, UniProt P15823+P23944+P43140) | 3.7
COc1cc2nc(N3CCCN(C(=O)C4COc5ccccc5O4)CC3)nc(N)c2cc1OC (stereo unspecified) | Adrenergic receptor alpha-1 (Rattus norvegicus, UniProt P15823+P23944+P43140) | 1.6
COc1cc2nc(N3CCN(C(=O)C4COc5cccc(C(C)C)c5O4)CC3)nc(N)c2cc1OC (stereo unspecified) | Adrenergic receptor alpha-1 (Rattus norvegicus, UniProt P15823+P23944+P43140) | 6.7
COc1cc2nc(N3CCN(C(=O)C4COc5cc(Cl)ccc5O4)CC3)nc(N)c2cc1OC (stereo unspecified) | Adrenergic receptor alpha-1 (Rattus norvegicus, UniProt P15823+P23944+P43140) | 12.6
COc1cc2nc(N3CCN(C(=O)C4COc5cc(Cl)c(Cl)cc5O4)CC3)nc(N)c2cc1OC (stereo unspecified) | Adrenergic receptor alpha-1 (Rattus norvegicus, UniProt P15823+P23944+P43140) | 13.3
COc1cc2nc(N3CCN(C(=O)C4COc5ccccc5O4)CC3)nc(N)c2cc1OC (single isomer, unassigned; (-)) [DOXAZOSIN] | Adrenergic receptor alpha-1 (Rattus norvegicus, UniProt P15823+P23944+P43140) | 2.2
COc1cc2nc(N3CCN(C(=O)C4COc5ccccc5O4)CC3)nc(N)c2cc1OC (single isomer, unassigned; (+)) [DOXAZOSIN] | Adrenergic receptor alpha-1 (Rattus norvegicus, UniProt P15823+P23944+P43140) | 2.6
COc1cc2nc(N3CCN(C(=O)C4Oc5ccccc5OC4C)CC3)nc(N)c2cc1OC (trans isomer) | Adrenergic receptor alpha-1 (Rattus norvegicus, UniProt P15823+P23944+P43140) | 2.1
COc1cc2nc(N3CCN(C(=O)C4COc5ccc(S(=O)(=O)N(C)C)cc5O4)CC3)nc(N)c2cc1OC (stereo unspecified) | Adrenergic receptor alpha-1 (Rattus norvegicus, UniProt P15823+P23944+P43140) | 6.5
COc1cc2nc(N3CCN(C(=O)C4COc5ccc(C(C)=O)cc5O4)CC3)nc(N)c2cc1OC (stereo unspecified) | Adrenergic receptor alpha-1 (Rattus norvegicus, UniProt P15823+P23944+P43140) | 3
COc1cc2nc(N3CCN(C(=O)C4Oc5ccccc5OC4C)CC3)nc(N)c2cc1OC (cis isomer) | Adrenergic receptor alpha-1 (Rattus norvegicus, UniProt P15823+P23944+P43140) | 0.7
COc1cc2nc(N3CCN(C(=O)C4COc5cc(C)c(C)cc5O4)CC3)nc(N)c2cc1OC (stereo unspecified) | Adrenergic receptor alpha-1 (Rattus norvegicus, UniProt P15823+P23944+P43140) | 7.8
COc1cc2nc(N3CCN(C(=O)C4COc5ccccc5O4)CC3)nc(N)c2cc1OC (stereo in doubt; 1) [DOXAZOSIN] | Adrenergic receptor alpha-1 (Rattus norvegicus, UniProt P15823+P23944+P43140) | 1.1
COc1cc2nc(N3CCN(C(=O)C4COc5cc(C(C)=O)ccc5O4)CC3)nc(N)c2cc1OC (stereo unspecified) | Adrenergic receptor alpha-1 (Rattus norvegicus, UniProt P15823+P23944+P43140) | 6.4
COc1cc2nc(N3CCN(C(=O)C4COc5ccccc5O4)C(C)C3)nc(N)c2cc1OC (stereo unspecified) | Adrenergic receptor alpha-1 (Rattus norvegicus, UniProt P15823+P23944+P43140) | 6.5
COc1cc2nc(N3CCN(C(=O)C4CCOc5ccccc5O4)CC3)nc(N)c2cc1OC (stereo unspecified) | Adrenergic receptor alpha-1 (Rattus norvegicus, UniProt P15823+P23944+P43140) | 3.8
